assay: Extraction of phenol from 1% aqueous solution with high boiling solvents alone and with TOPO (Example 3, Table III); type: physicochemical; conditions: solvent + TOPO 133 g/l (head: TOPA); A/O = 0.5; 24° C.; 10 minutes
Readout kind: C aq. Final (phenol) (ppm)
Enter your answer as a number in ppm; do not include the unit.

Example cases with answers are listed next.
>>> print(df.to_string())
                                   molecule  observed_result
0      O=C(c1ccccc1)c1ccccc1 [Benzophenone]               37
1               CCCCCCCCCCCCCO [Tridecanol]              128
2    c1ccc(Cc2ccccc2)cc1 [Diphenyl methane]               21
3      c1ccc(Oc2ccccc2)cc1 [Diphenyl ether]               23
4  CC(C)CC(=O)CC(C)C [DIBK, diisobutylketone, reference compound]               26

Okay, now this molecule:
Prompt: For the molecule CC(=O)CC(C)C [Methyl isobutyl ketone, reference compound] , what C aq. Final (phenol) is on record?
Response: 24

====

assay: Extraction of phenol from 1% aqueous solution with high boiling solvents alone and with TOPO (Example 3, Table III); type: physicochemical; conditions: solvent + TOPO 133 g/l; A/O = 1; 24° C.; 10 minutes
Please note: C aq. Final (phenol) exactly at 60 ppm is FALSE. Only values below 60 ppm get TRUE.

                                   molecule  category_label
0  CC(=O)CC(C)C [Methyl isobutyl ketone, reference compound]            TRUE
1      O=C(c1ccccc1)c1ccccc1 [Benzophenone]           FALSE
2               CCCCCCCCCCCCCO [Tridecanol]           FALSE

Could you now look at the following molecule, please?
Prompt: Does this molecule meet the criterion C aq. Final (phenol) < 60 ppm? c1ccc(Oc2ccccc2)cc1 [Diphenyl ether]
Response: TRUE

====

experiment: Extraction of phenol from 1% aqueous solution with high boiling solvents alone and with TOPO (Example 3, Table III); assay type: physicochemical; conditions: solvent alone; A/O = 1; 24° C.; 10 minutes
Please use MET whenever C aq. Final (phenol) is not below 500 ppm, and NOT MET whenever it is.

In [3]: df
Out[3]:
                                   molecule  category_label
0  CC(C)OC(C)C [Diisopropyl ether, diisopropyl ether, reference compound]         NOT MET
1               CCCCCCCCCCCCCO [Tridecanol]             MET
2  CC(C)CC(=O)CC(C)C [DIBK, diisobutylketone, reference compound]         NOT MET
3      c1ccc(Oc2ccccc2)cc1 [Diphenyl ether]             MET

Shifting focus to the molecule that follows.
Prompt: Threshold query (C aq. Final (phenol) >= 500 ppm) on CC(=O)CC(C)C [Methyl isobutyl ketone, reference compound]
Response: NOT MET
